# Test System: UniProt Q53GL7
# Assay Procedure: Inhibition of PARP10cat-mediated ADP-ribosylation of SRPK2 using NAD+ (100 μM)
# Type: biochemical
# Cond: ADP-ribosylation of SRPK2, NAD+ 100 μM
pIC50: −log10 of the molar value.
pIC50 values, listed per item

Smiles Record | pIC50
Cc1c(-c2ccncc2)ccc2c1CCNC2=O | 5.85
O=C1NCCc2cc(Br)ccc21 | 4.77
O=C1NCCc2cc(-c3cccc(Cl)c3)ccc21 | 5.96
Cc1c(-c2cnc3[nH]ccc3c2)ccc2c1CCNC2=O | 6.15
O=C1NCCc2c1cccc2-c1ccccc1 | 4.46
Cc1c(-c2ccc3[nH]ccc3c2)ccc2c1CCNC2=O | 5.96
Cc1c(-c2cnc3ccccc3c2)ccc2c1CCNC2=O | 5.74
Cc1c(-c2cncc(F)c2)ccc2c1CCNC2=O | 5.66
O=C1NCCc2c(Br)cccc21 | 5.00
Cc1ccc2c(c1)CCNC2=O | 4.48
O=C1NCCc2cc(-c3cccc(C(F)(F)F)c3)ccc21 | 5.64

* * *

# Test System: PARP11 (Homo sapiens)
# Sequence (Q9NR21 whole entry): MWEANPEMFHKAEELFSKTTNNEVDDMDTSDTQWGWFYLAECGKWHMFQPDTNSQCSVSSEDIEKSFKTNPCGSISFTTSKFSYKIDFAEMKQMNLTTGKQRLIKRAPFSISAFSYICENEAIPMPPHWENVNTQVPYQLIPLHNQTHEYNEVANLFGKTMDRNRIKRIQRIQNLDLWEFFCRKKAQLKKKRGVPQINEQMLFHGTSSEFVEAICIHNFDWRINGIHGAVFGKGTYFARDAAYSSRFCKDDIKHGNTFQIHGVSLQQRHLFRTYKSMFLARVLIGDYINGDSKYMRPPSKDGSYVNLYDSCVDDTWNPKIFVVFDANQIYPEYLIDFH
# Assay Procedure: Inhibition of PARP11-mediated ADP-ribosylation of SRPK2 using NAD+ (100 μM)
# Assay type: biochemical
# Cond: ADP-ribosylation of SRPK2, NAD+ 100 μM
Checkbox rule: IC50 lower than 10 µM = YES; IC50 not lower than 10 µM = NO.

Molecule | Group
Cc1c(-c2cccnc2)ccc2c1CCNC2=O | NO
O=C1NCCc2cc(Br)ccc21 | NO
Cc1c(-c2ccncc2)ccc2c1CCNC2=O | NO
Cc1c(-c2ccc3[nH]ccc3c2)ccc2c1CCNC2=O | YES
Cc1ccc2c(c1)CCNC2=O | NO
Cc1c(-c2ccnc(Cl)c2)ccc2c1CCNC2=O | NO
O=C1NCCc2c1cccc2-c1ccccc1 | YES
NC(=O)c1ccc(Oc2ccc(C(N)=O)cc2)cc1 [OUL35, 4,4′-oxydibenzamide, reference compound] | YES
Cc1c(-c2cnc3[nH]ccc3c2)ccc2c1CCNC2=O | NO
Cc1c(-c2cncc(F)c2)ccc2c1CCNC2=O | NO
Cc1c(-c2cnc3ccccc3c2)ccc2c1CCNC2=O | NO
O=C1NCCc2cc(-c3cccc(Cl)c3)ccc21 | YES
Cc1cccc(-c2ccc3c(c2)CCNC3=O)c1 | YES
O=C1NCCc2c(Br)cccc21 | YES
O=C1NCCc2cc(-c3ccccc3)ccc21 | YES
Cc1c(-c2ccnc(F)c2)ccc2c1CCNC2=O | NO
O=C1NCCc2cc(-c3cccc(F)c3)ccc21 | YES
Cc1c(-c2cncc(C(F)(F)F)c2)ccc2c1CCNC2=O | NO
O=C1NCCc2cc(-c3cccc(C(F)(F)F)c3)ccc21 | NO
O=C1NCCc2cc(Cc3ccccc3)ccc21 | NO
Cc1cccc2c1CCNC2=O | YES
Cc1c(-c2ccccc2)ccc2c1CCNC2=O | NO
Cc1c(-c2ccnc(C(F)(F)F)c2)ccc2c1CCNC2=O | NO

* * *

PARP11/PARP10 values, listed per item
# Test System: UniProt Q53GL7
# Sequence (Q53GL7 806-1025 limits assumed): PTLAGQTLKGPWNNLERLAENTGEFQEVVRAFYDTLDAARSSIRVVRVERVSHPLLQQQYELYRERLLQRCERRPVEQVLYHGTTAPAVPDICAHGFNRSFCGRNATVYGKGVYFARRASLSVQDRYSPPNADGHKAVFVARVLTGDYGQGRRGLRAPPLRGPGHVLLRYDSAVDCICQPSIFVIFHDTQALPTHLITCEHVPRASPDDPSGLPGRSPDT
# Assay Procedure: Inhibition of PARP10cat-mediated ADP-ribosylation of SRPK2 using NAD+ (100 μM)
# Type: biochemical
# Cond: ratio of IC50 values, PARP11 over PARP10cat
Readout: PARP11/PARP10

Compound | Reported
O=C1NCCc2cc(-c3ccccc3)ccc21 [Compound 8] | 3.5
Cc1c(-c2ccnc(F)c2)ccc2c1CCNC2=O [Compound 20] | 24
Cc1c(-c2ccnc(Cl)c2)ccc2c1CCNC2=O [Compound 21] | 15
Cc1c(-c2cnc3ccccc3c2)ccc2c1CCNC2=O [Compound 19] | 7.8
Cc1c(-c2cncc(F)c2)ccc2c1CCNC2=O [Compound 23] | 25
Cc1c(-c2ccnc(C(F)(F)F)c2)ccc2c1CCNC2=O [Compound 22] | 29
Cc1c(-c2ccc3[nH]ccc3c2)ccc2c1CCNC2=O [Compound 17] | 3.8
Cc1ccc2c(c1)CCNC2=O [Compound 6] | 1.0
Cc1cccc2c1CCNC2=O [Compound 3, 5-methyl-dq] | 0.24
O=C1NCCc2cc(-c3cccc(C(F)(F)F)c3)ccc21 [Compound 12] | 7.6
Cc1c(-c2cncc(C(F)(F)F)c2)ccc2c1CCNC2=O [Compound 24] | 34

* * *

# Test System: PARP10 (Homo sapiens)
# Construct: Human embryonic kidney (HEK) 293T cells expressing full-length PARP10; expressed in transfected cells; host or cells: HEK293T
# Assay Procedure: PARP10-dependent ADP-ribosylation in HEK293T cells expressing GFP-PARP10, Western blot with ADP-ribose binding reagent
# Type: cell-based
# Cond: GFP-PARP10, 22 at 1-100 μM for 3 h, read-out: EC50, PARP10 itself (auto-ADP-ribosylation)
pEC50: −log10 of the molar value.
Readout: pEC50

Smiles Record | Readout | Reported
Cc1c(-c2ccnc(C(F)(F)F)c2)ccc2c1CCNC2=O | pEC50 | 4.96
